- System: UACC-257
- procedure-summary: NCI tumour cell line growth inhibition, 48 h
Activity calls are given as the source filed them. No stated cut-off is given here; in the data, active = GI50 up to about 1.1 µM and inactive = higher.
Log the outcome using a class from TRUE (active), FALSE (inactive)

molecule=COc1cc(/C=C/c2ccc(OC)c(OC)c2OC)cc(OC)c1OC assigned_category=FALSE
molecule="CC(C)=CCC(O)[C@](C)(O)[C@H]1[C@H](O)C[C@@]2(C)[C@@H]3CCc4cc(O)c(OC5OC(CO)C(O)C(O)C5O)cc4C3(C)C(=O)C[C@]12C (stereo not given in full)" assigned_category=FALSE
molecule="O=C(CC1(O)C(=O)Nc2c(Cl)cc(Cl)cc21)c1ccc([N+](=O)[O-])cc1 (stereo not given)" assigned_category=FALSE
molecule=COc1nncc2[nH]c(-c3ccccc3)cc12 assigned_category=FALSE
molecule=c1cncc(O[Si](Oc2cccnc2)(Oc2cccnc2)Oc2cccnc2)c1 assigned_category=FALSE
molecule="CC(N/N=C(\\S)N1CCN(c2ccccn2)CC1)c1nccc2ccccc12 (stereo not given)" assigned_category=TRUE
molecule=COc1cc(Nc2nc3ccccc3nc2C(C)C)cc(OC)c1OC assigned_category=FALSE
molecule="CC(CCOc1ccc2ccc(=O)oc2c1)C1=CC(=O)C(C)(C)O1 (stereo not given)" assigned_category=FALSE

Challenge: # lookup: test call for "O=c1[nH]c2cc([N+](=O)[O-])c(N/N=C/c3ccc(Cl)cc3Cl)c([N+](=O)[O-])c2[nH]1"
Response given: FALSE

Challenge: What did the test return for "CCCCCCCCCc1nn2c(Cc3ccccc3)nnc2s1" ?
Response given: FALSE

---

- Tested on: NCI-H226
- procedure-summary: NCI tumour cell line growth inhibition, 48 h
The source made the active and inactive calls. Rule as the data show it: active = GI50 up to about 1.1 µM and inactive = higher.
Your answer must be one of the following: class 1 = active, class 0 = inactive

Before answering, review these 7 worked examples.
compound=C1CSCCSCSCCS1 target=NCI-H226 assigned_category="class 0"
compound=COC(=O)c1ccc(Nc2nc3[nH]cnc3c(=O)[nH]2)cc1 target=NCI-H226 assigned_category="class 0"
compound=Cc1cn(CC2=NCC(C)(C)CN2)c(=O)[nH]c1=O target=NCI-H226 assigned_category="class 0"
compound=COC(=O)C1=C(CCCCO[Si](C)(C)C(C)(C)C)NC(=O)N2[C@H](CCOCc3ccccc3)CC[C@@H]12 target=NCI-H226 assigned_category="class 0"
compound=C/C(=N/NC(=S)N1CCCCC1)c1ccccc1O target=NCI-H226 assigned_category="class 0"
compound=CCCCCCCCCCCCOCC1(COCCCCCCCCCCCC)COC(c2ccc(N)cc2)OC1 target=NCI-H226 assigned_category="class 0"
compound=CCOc1ccc2[nH]c3c(C)c4cc[n+](C)cc4c(C)c3c2c1 target=NCI-H226 assigned_category="class 1"

Consider the additional compound presented here.
Challenge: // return assay outcome for [O-][S+](CCc1ccccc1)Nc1ccccc1 (stereo not drawn)
Response given: class 0

---

- System: KM12
- procedure-summary: NCI tumour cell line growth inhibition, 48 h
Calls of active or inactive are those of the source. No stated cut-off is given here; in the data, active = GI50 up to about 1.1 µM and inactive = higher.
# GI50 per record follows

These solved cases illustrate the format of a correct answer.
compound=CCOC(=O)/C=C(/C(=O)OCC)n1ccc(=O)n(/C(=C/C(=O)OCC)C(=O)OCC)c1=O reported_value="17.2 µM (inactive)"
compound=COc1cc(/C=C2\N=C(c3ccccc3)N(c3cc4cc(Sc5ccccc5)ccc4[nH]3)C2=O)cc(OC)c1OC reported_value="15 µM (inactive)"
compound="N=S(=O)(c1ccccc1)c1ccccc1[N+](=O)[O-] (stereo not given)" reported_value="> 100 µM (inactive)"
compound=COc1cccc(NC(=O)/C(Cc2nc3ccccc3nc2C)=N/NC(=O)C[n+]2ccccc2)c1 reported_value="> 100 µM (inactive)"
compound=Cc1ncc([N+](=O)[O-])n1CCNC(=O)CCCn1cnc([N+](=O)[O-])n1 reported_value="> 100 µM (inactive)"

Field: next compound
Challenge: Dear colleague, I am looking for the recorded GI50 of the following compound: "O=[N+]([O-])c1ccc(OCc2nnc(CCCCCCCCc3nnc(COc4ccc([N+](=O)[O-])cc4)o3)o2)cc1"
Response given: 55.3 µM (inactive)
